# Tested on: Rattus norvegicus
# assay-summary: Antidiabetic activity in hyperglycemic normal Wistar rat assessed as reduction of serum glucose level at 10 mg/kg, po after 15 mins by glucose oxidase method relative to control
# Type: functional
# Set-up: scale not given: the % may be the effect or the level left
property-measured: Activity

test-smiles	Activity
O=C(/C=C/c1ccc2ccccc2c1)c1ccc([N+](=O)[O-])cc1	22%
O=C(/C=C/c1cccc2ccccc12)c1ccc([N+](=O)[O-])cc1	17%
O=C(/C=C/c1cccc2ccccc12)c1cccc([N+](=O)[O-])c1	18%

### Prompt Checklist item: Activity tested on Rattus norvegicus, entry `O=C(/C=C/c1ccc2ccccc2c1)c1cccc([N+](=O)[O-])c1` , value?
### Response 24%
